Origin of the recorded values: ChEMBL document CHEMBL1268985

The entries below are paired with their reported EC50.
# ASSAYED TARGET: Toll-like receptor 7 (Homo sapiens)
# Sequence (Q9NYK1 whole entry): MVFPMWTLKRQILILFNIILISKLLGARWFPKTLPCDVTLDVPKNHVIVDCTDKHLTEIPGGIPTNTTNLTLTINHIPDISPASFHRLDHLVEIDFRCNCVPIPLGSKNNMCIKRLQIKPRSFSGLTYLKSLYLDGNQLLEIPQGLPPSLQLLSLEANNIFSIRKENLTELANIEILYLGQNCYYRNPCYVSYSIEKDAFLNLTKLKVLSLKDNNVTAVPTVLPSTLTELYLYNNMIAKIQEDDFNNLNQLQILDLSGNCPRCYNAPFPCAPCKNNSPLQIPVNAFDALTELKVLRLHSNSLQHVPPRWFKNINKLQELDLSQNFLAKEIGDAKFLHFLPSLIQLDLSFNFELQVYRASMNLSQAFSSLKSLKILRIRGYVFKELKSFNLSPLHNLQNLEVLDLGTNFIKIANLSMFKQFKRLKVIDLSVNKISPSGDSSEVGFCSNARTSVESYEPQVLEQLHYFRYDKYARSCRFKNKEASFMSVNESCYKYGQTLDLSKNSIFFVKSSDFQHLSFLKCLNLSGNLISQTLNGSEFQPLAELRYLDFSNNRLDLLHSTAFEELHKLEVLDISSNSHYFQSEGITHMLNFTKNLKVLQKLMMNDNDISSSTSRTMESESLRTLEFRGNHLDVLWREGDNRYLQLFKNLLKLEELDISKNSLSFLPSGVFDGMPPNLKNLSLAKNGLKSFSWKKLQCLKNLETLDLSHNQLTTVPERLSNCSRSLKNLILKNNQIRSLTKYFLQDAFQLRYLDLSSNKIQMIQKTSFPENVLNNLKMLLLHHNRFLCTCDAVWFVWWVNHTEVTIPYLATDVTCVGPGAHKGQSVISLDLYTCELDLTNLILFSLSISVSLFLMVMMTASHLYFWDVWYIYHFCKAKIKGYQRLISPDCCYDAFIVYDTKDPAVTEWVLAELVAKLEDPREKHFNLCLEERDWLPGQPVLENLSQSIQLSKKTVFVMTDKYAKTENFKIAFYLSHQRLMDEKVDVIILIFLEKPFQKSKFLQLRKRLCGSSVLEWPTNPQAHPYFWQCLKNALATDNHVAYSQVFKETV
# TEST NAME: Agonist activity at human TLR7 expressed in HEK-Blue-7 cells assessed as increase in NF-kappaB activation by sAP assay
Give your result in nM as a bare value.

Recorded EC50, per entry:
- CCCCc1nc2c(N)nc3ccccc3c2n1Cc1cccc2ccccc12: 396
- CCCCc1nc2c(N)nc3ccccc3c2n1Cc1ccc(CNC(=S)NCCCCCNC(=O)COc2ccc(C3=[N+]4C(=Cc5ccc(-c6cccs6)n5[B-]4(F)F)C=C3)cc2)cc1: 108
- CCCCc1nc2c(N)nc3ccccc3c2n1Cc1ccc(CNC(=S)Nc2cccc(-c3c4ccc(=O)cc-4oc4cc(O)ccc34)c2C(=O)O)cc1: 247

Given the compound CCCCc1nc2c(N)nc3ccccc3c2n1Cc1ccc(CNC(=S)Nc2ccc(-c3c4ccc(=[N+](CC)CC)cc-4oc4cc(N(CC)CC)ccc34)c(C(=O)O)c2)cc1 , what is its reported EC50? 115
